# system-name: anthrax lethal factor (LF) (Bacillus anthracis, UniProt P15917)
# Sequence (P15917 34-809 limits assumed): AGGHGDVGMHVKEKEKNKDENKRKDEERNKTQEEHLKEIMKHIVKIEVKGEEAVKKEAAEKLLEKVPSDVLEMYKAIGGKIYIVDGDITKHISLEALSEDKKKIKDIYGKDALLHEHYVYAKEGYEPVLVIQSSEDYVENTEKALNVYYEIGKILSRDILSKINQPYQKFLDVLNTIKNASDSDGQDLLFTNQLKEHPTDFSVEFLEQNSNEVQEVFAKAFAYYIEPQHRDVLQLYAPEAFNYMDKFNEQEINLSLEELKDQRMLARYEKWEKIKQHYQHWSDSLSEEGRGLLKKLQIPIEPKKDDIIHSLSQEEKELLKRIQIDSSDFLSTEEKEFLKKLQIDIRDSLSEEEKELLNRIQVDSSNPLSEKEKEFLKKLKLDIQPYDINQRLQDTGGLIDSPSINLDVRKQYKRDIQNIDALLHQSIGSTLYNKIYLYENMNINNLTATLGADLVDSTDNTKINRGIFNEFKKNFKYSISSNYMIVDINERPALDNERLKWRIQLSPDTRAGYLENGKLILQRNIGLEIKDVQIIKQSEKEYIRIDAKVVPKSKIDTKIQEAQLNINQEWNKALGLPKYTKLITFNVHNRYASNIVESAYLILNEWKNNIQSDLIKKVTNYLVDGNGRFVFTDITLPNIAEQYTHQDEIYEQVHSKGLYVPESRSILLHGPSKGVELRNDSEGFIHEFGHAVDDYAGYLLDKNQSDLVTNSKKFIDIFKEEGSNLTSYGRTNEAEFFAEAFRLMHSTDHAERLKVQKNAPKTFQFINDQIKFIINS
# procedure-summary: biochemical
# Format: biochemical
recorded-endpoint: IC50 (µM)

compound: CNC(=O)[C@H](Cc1c[nH]c2ccccc12)NC(=O)[C@@H](CC(=O)NO)CC(C)C [GM6001, reference compound]
unit-spec: µM
observed: 9

###

# system-name: anthrax lethal factor (LF) (Bacillus anthracis, UniProt P15917)
# procedure-summary: biochemical
# Assay type: biochemical
# test-context: read-out: IC50 (µM), MKK6 cleavage

molecule: COc1cc(C(=O)O)c2c(c1C)OC(=O)c1c(C)cc(O)c(C=O)c1O2 [Compound 3, Parellic acid]
unit-spec: µM
IC50: 125
//
molecule: Cc1cc(O)c(C=O)c2c1C(=O)Oc1c(CO)c(O)c3c(c1O2)C(O)OC3=O (centres unmarked) [Compound 2, Salazinic acid]
unit-spec: µM
IC50: 42

###

# system-name: anthrax lethal factor (LF) (Bacillus anthracis, UniProt P15917)
# procedure-summary: biochemical
# Assay type: biochemical
recorded-endpoint: Inhibition of MKK6 cleavage by LF (structure-activity profile, in words)

molecule: Cc1cc(OC(=O)c2c(C)cc(O)cc2O)cc(O)c1C(=O)O
observed: lack of inhibition

molecule: CCCCCC(=O)Cc1cc(O)cc2c1C(=O)Oc1cc(O)c(C(=O)O)c(CCCCC)c1O2
observed: failed to inhibit LF

molecule: Cc1cc(O)c(C=O)c2c1C(=O)Oc1c(CO)c(O)c3c(c1O2)C(O)OC3=O (stereo not drawn)
observed: active as inhibitors

molecule: COC(=O)c1c(C)cc(OC(=O)c2c(C)cc(O)c(C=O)c2O)c(C)c1O
observed: lack of inhibition

molecule: COC(=O)c1c(OC)cc2c(c1C)Oc1c(Cl)c(O)c(Cl)c(C)c1C(=O)O2
observed: failed to inhibit LF

molecule: COc1cc(C(=O)O)c2c(c1C)OC(=O)c1c(C)cc(O)c(C=O)c1O2
observed: active as inhibitors
